target: Neuronal acetylcholine receptor; alpha4/beta2 (Rattus norvegicus, UniProt P09483+P12390); assay: Displacement of [3H]epibatidine from alpha4beta2 nAChR in rat cerebral cortex
Sequence (P09483 whole entry): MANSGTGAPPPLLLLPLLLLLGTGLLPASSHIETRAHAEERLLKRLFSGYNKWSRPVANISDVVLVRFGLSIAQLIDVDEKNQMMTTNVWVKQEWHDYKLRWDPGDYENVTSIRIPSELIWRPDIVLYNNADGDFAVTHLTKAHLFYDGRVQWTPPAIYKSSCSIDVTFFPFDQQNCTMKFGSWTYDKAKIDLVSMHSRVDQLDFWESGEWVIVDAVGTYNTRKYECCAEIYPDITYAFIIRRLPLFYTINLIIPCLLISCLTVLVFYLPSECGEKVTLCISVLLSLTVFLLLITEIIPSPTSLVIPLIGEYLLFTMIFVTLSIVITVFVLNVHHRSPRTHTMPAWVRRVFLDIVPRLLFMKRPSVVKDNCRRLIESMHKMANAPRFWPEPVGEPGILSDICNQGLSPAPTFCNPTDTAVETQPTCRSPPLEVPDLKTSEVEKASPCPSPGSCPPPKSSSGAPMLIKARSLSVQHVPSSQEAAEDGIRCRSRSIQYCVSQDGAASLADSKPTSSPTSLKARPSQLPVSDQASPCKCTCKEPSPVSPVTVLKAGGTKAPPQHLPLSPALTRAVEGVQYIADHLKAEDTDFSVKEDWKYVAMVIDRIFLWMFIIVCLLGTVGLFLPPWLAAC
Sequence (P12390 whole entry): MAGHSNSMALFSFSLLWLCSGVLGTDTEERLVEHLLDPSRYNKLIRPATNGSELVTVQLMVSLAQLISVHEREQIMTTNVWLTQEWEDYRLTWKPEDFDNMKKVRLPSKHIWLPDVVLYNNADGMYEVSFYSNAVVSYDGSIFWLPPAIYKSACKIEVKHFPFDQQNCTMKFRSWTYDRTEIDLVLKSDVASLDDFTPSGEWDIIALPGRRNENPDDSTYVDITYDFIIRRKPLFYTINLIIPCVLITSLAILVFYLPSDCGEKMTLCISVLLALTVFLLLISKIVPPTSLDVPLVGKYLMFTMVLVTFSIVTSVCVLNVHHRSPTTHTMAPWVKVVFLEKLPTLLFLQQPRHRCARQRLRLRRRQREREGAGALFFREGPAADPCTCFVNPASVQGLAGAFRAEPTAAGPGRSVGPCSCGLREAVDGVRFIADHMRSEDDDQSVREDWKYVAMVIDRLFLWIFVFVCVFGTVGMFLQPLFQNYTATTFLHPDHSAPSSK
pKi: −log10 of the molar value.
Entries and their measured pKi follow.
Property label: pKi

Compound	Relational operator	Result value
Clc1ccc([C@H]2CC3CCC2[C@@H]3NCc2ccccc2)cn1 (relative stereo)	<	6.00
Cl.Cl.Cl.N[C@H]1C2CCC1[C@@H](c1ccc(Cl)nc1)C2 (relative stereo)	=	8.09
Cl.N[C@@H]1C2CCC1[C@@H](c1ccc(Cl)nc1)C2 (relative stereo)	=	7.96
Clc1ccc([C@H]2CC3CCC2[C@H]3NCc2ccccc2)cn1 (relative stereo)	<	6.00
